measured.target: Cytochrome P450 3A4 (Homo sapiens)
assay.procedure: qHTS Assay for Activators of Cytochrome P450 3A4 (AID 885); note: nearly all actives have a fitted effect of over 65% in size
run.conditions: recombinant CYP3A4, Luciferin-PPXE luminescence, 60 min; series mostly up to 57.1 µM
Calls of active or inactive are those of the source. Calls come from the whole dose curve; as a rule, active = well fitted activation curve with a large enough effect; inconclusive = small, poorly fitted or top-dose-only effect; inactive = no such curve, though single readings can be large or run the other way.
Outcomes: active, inactive

molecule	label
CCCn1c(-c2ccc(F)cc2)nc2c(NCCCCN(C)C)nc(C)nc21	inactive
COc1ccccc1CN1CC[C@@]2(CCCN(C(=O)c3cccn3C)C2)C1	inactive
CCn1c(=O)c2[nH]c(-c3ccccc3)nc2n(CC)c1=O	inactive
O=c1c(CCc2ccccc2)nc2cnc(N3CCNCC3)nc2n1C1CC1	inactive
O=C1CC(c2ccc(O)cc2)Oc2ccccc21 (stereo unspecified)	inactive
CNc1ncncc1-c1ccccc1OC	inactive
CC(C)(c1cc(Br)c(O)c(Br)c1)c1cc(Br)c(O)c(Br)c1	inactive
COCC(=O)N1CCC2(CC1)CCN(C(c1ccccc1)c1ccccc1)CC2	active
CC(=O)NCCNc1ccnc(-c2ccccc2C(F)(F)F)n1	inactive
CCN(CC)CCCC(C)n1c(-c2ccccc2)nc2c(NC3CCCCC3)nc(C)nc21 (stereo unspecified)	inactive
COc1ncc2nc(-c3ccc(F)cc3)c(=O)n(C)c2n1	inactive

====

Overview of reported max response across a group of compounds:
assay.procedure: Cell Viability qHTS for small molecule stabilizers of the endoplasmic reticulum resident proteome (AID 1508629);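 note: human SH-SY5Y neuroblastoma cells carrying the GLuc-SERCaMP reporter; compound exposure about 46 h in total before the viability read; % is set by controls: 0 for no effect and ±100 for the full control effect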
run.conditions: cell viability counter-screen, 100 nM thapsigargin for final 4 h
Inconclusive results are not listed.

compound	max response / %
COc1ccc(Oc2ncc3nc(CCc4ccccc4)c(=O)n(C[C@H]4CCCO4)c3n2)cc1	6.27
CN(C)c1ccc(-c2nccc(NCCN3CCOCC3)n2)cc1	10.1
Cn1c(=O)c(CCc2ccccc2)nc2cnc(OCc3ccccc3)nc21	-14.7
CN(C)c1ncc2nc(CCc3ccccc3)c(=O)n(C[C@H]3CCCO3)c2n1	23.4
Cc1ccc(-n2c(C)cc(/C=N/NC(=O)c3ccncc3)c2C)cc1C	2.93
C=C1CCC[C@]2(C)C[C@H]3OC(=O)[C@H](CNCCc4ccccc4OC)C3CC12 (stereo not given in full)	-12.1
COc1cccc(CN2CCN(C(=O)c3ccc(-c4ccccc4)cc3)CC2)c1OC	10.7
CN(C)c1nccc(N(Cc2ccccc2)Cc2ccccc2)c1C#N	-2.77
O=C(c1cc(C(F)(F)F)cc(C(F)(F)F)c1)N1CCC2(CC1)CCN(c1ccccn1)CC2	25.1
Cc1nc2cnc(N3CCNCC3)nc2n(Cc2ccc(F)cc2)c1=O	11.4

====

Test system: P93_24
assay.procedure: qHTS profiling for inhibitors of Plasmodium falciparum proliferation (AID 504749); note: nearly all actives have a fitted effect of over 60% in size; note: potency is the fitted concentration of half-maximal effect
run.conditions: P. falciparum in erythrocytes, SYBR Green DNA, 72 h; series mostly up to 28.7 µM
Inconclusive results are not listed. Calls of active or inactive are those of the source. Calls come from the whole dose curve; as a rule, active = well fitted inhibition curve with a large enough effect; inconclusive = small, poorly fitted or top-dose-only effect; inactive = flat fitted curve, though single readings scatter.
recorded.metric: Potency

compound	reported
N[C@H](Cc1ccc(O)c(O)c1)C(=O)O	inactive
CO[C@H]1/C=C/O[C@@]2(C)Oc3c(C)c(O)c4c(O)c(c(/C=N\N5CCN(C6CCCC6)CC5)c(O)c4c3C2=O)NC(=O)/C(C)=C\C=C\[C@H](C)[C@H](O)[C@@H](C)[C@@H](O)[C@@H](C)[C@H](OC(C)=O)[C@@H]1C	0.355 µM (active)
CC(C)(C)[C@]1(O)CCN2CC3c4ccccc4CCc4cccc(c43)[C@@H]2C1 (some centres undefined)	11.2 µM (active)
CC(C)C[C@H]1C(=O)N2CCCC2[C@]2(O)O[C@](NC(=O)[C@@H]3C=C4c5cccc6[nH]c(Br)c(c56)C[C@H]4N(C)C3)(C(C)C)C(=O)N12 (some centres undefined)	2.82 µM (active)
CN=C(N)NCCCC(N)C(=O)O (centres undefined)	inactive
Oc1ccc(/C=C\c2cc(O)cc(O)c2)cc1	inactive
C[C@@]12C(=O)OC(=O)[C@]1(C)[C@H]1CC[C@@H]2O1	3.98 µM (active)
CN1C(=O)CCC1c1cccnc1 (centres undefined)	inactive
C=C1/C(=C\C=C2/CCC[C@]3(C)[C@@H]([C@H](C)CCCC(C)(C)O)CC[C@@H]23)C[C@@H](O)C[C@@H]1O	inactive
